Can you tell me LC retention time for the items I'm about to list?
procedure_summary: RP, Merck Supelco Ascentis Express C18, 100 × 2.1 mm, 2 µm, 40 °C, 0.4 mL/min, estimated dead time 0.55 min; A: water + 0.1% formic acid, pH 3; B: acetonitrile + 0.1% formic acid, pH 3; gradient (min/%B) 0/5 2/5 17/99.9 20/99.9
run_parameters: stereoisomer not certain
Numbers only, in min.

Solved entries:
[[record]]
compound = "O=c1[nH]cnc2c1ncn2C1OC(CO)C(O)C1O (stereo not given)"
assay_readout = "LC retention time"
assay_result = 0.703

[[record]]
compound = "NCCc1c[nH]c2ccccc12"
assay_readout = "LC retention time"
assay_result = 2.77

[[record]]
compound = "O=C(O)c1ccccc1[O-] [SALICYLATE]"
assay_readout = "LC retention time"
assay_result = 3.62


Provide each entry's LC retention time from the list below.
1. CC(CCC(=O)NCCS(=O)(=O)O)C1CCC2C3CCC4CC(O)CCC4(C)C3CCC12C (stereo not given)
2. OCCc1c[nH]c2ccccc12
3. CC1(O)CCOC(=O)C1 (stereo not given)
4. Nc1ncnc2c1ncn2C1CC(O)C(CO)O1 (stereo not given)
5. O=C(O)CCc1ccccc1O [3-(2-HYDROXYPHENYL)PROPANOATE]

Ans:
1. 9.6
2. 5.61
3. 0.903
4. 0.667
5. 5.13

###

procedure_summary: RP, Merck Supelco Ascentis Express C18, 100 × 2.1 mm, 2 µm, 40 °C, 0.4 mL/min, estimated dead time 0.55 min; A: water + 0.1% formic acid, pH 3; B: acetonitrile + 0.1% formic acid, pH 3; gradient (min/%B) 0/5 2/5 17/99.9 20/99.9
run_parameters: stereoisomer not certain
Can you tell me LC retention time for the items I'm about to list?
One number for each entry, in min.

[[record]]
compound = "N[C@@H](Cc1ccc(O)c([N+](=O)[O-])c1)C(=O)O"
assay_readout = "LC retention time"
readout_units = "min"
assay_result = 1.35


Provide each entry's LC retention time from the list below.
1. NCC(=O)CCC(=O)O [5-AMINOLEVULINATE]
2. Nc1nc2nc[nH]c2c(=O)[nH]1
3. Cn1c(=O)[nH]c2ncn(C)c2c1=O
4. CC(=O)NCCCC(=O)O [4-ACETAMIDOBUTANOATE]
5. CC(=CCC1=C(C)C(=O)c2ccccc2C1=O)CCCC(C)CCCC(C)CCCC(C)C (stereo not given)

Ans:
1. 0.737
2. 0.663
3. 2.16
4. 0.8
5. 13.3

###

Can you tell me LC retention time for the items I'm about to list?
procedure_summary: RP, Merck Supelco Ascentis Express C18, 100 × 2.1 mm, 2 µm, 40 °C, 0.4 mL/min, estimated dead time 0.55 min; A: water + 0.1% formic acid, pH 3; B: acetonitrile + 0.1% formic acid, pH 3; gradient (min/%B) 0/5 2/5 17/99.9 20/99.9
run_parameters: stereoisomer not certain
One number for each entry, in min.

Provide each entry's LC retention time from the list below.
1. Cn1cnc2c(ncn2C2OC(CO)C(O)C2O)c1=N (stereo not given)
2. CC(=O)c1ccc(O)cc1O [2',4'-DIHYDROXYACETOPHENONE]

Ans:
1: 1.01; 2: 5.17

Provide each entry's LC retention time from the list below.
1. CC(=O)OCC(=O)C1CCC2C3CCC4=CC(=O)CCC4(C)C3CCC12C (stereo not given) [DEOXYCORTICOSTERONE ACETATE]
2. CCCCCCCCC(=O)[O-] [NONANOATE]
3. COc1cc(C=CC(=O)O)ccc1O [FERULATE]
4. CC(CCC(=O)O)C1CCC2C3CCC4CC(O)CCC4(C)C3CCC12C (stereo not given) [LITHOCHOLATE]
5. O=C(O)Cc1cc(O)ccc1O [HOMOGENTISATE]
6. O=C(O)CCCCCCCC(=O)O [AZELATE]
7. CC(=O)OCC(=O)C1(O)CCC2C3CCC4=CC(=O)CCC4(C)C3C(O)CC21C (stereo not given) [CORTISOL 21-ACETATE]
8. NCCc1ccccc1

Ans:
1. 10.5
2. 9.85
3. 4.85
4. 12.4
5. 1.22
6. 5.57
7. 8.09
8. 0.963
